# Test system: M14
# PROCEDURE_SUMMARY: NCI tumour cell line growth inhibition, 48 h
Active and inactive are the calls of the source. No stated cut-off is given here; in the data, active = GI50 up to about 1.1 µM and inactive = higher.
Consider the following compounds; for each one, report its GI50.

Below, 6 compounds whose answers are already recorded.
CC[N+](C)(CC)Cc1ccccc1[N+](=O)[O-]: > 100 µM (inactive)
O=C1Oc2ccccc2C(=O)/C1=C\Nc1nc(-c2ccc(O)c(O)c2)cs1: 3.22 µM (inactive)
CC1CCC2N(C1)CC1C3(O)CC45OC6(O)C(O)CCC4(C)C6CCC5C3(O)CC(O)C1(O)C2(C)O (stereo not given): > 100 µM (inactive)
CCCCn1c2c(n(CCCC)c1=S)-c1c(n(CCCC)c(=S)n1CCCC)S[Se][Se]S2: 8.59 µM (inactive)
OCCN(C1=NCCN1)/[N+](=C/c1ccccc1O)[CH-]c1ccccc1O: > 100 µM (inactive)
C/C(CCn1[nH]c(=O)ccc1=O)=N\N=C(N)N: > 100 µM (inactive)

Hello, I would appreciate it if you could give GI50 for each entry below.
1. CC(=O)Nc1cc([As](=O)(O)O)ccc1O
2. O=S(=O)(SCCCCSS(=O)(=O)c1ccc(Cl)cc1)c1ccc(Cl)cc1

Result ::
1. > 100 µM (inactive)
2. 14.6 µM (inactive)

Hello, I would appreciate it if you could give GI50 for each entry below.
1. Oc1ccccc1/C=N/Nc1nnc2c3ccccc3c3ccccc3c2n1
2. COCc1cc2c(cc1/C=C/[N+](=O)[O-])OCO2

Result ::
> 100 µM (inactive)
16.7 µM (inactive)

###

# Tested on: UACC-257
# PROCEDURE_SUMMARY: NCI tumour cell line growth inhibition, 48 h
Activity calls are given as the source filed them. Rule as the data show it: active = GI50 up to about 1.1 µM and inactive = higher.
ENDPOINT_NAME: GI50

COC1(OC)CCCc2c1no[n+]2[O-]: > 100 µM (inactive)

Hello, I would appreciate it if you could give GI50 for each entry below.
1. CC1=C[C@H](O)[C@@]2(C)[C@@H]([C@@H]1C)[C@H]1CC[C@@H]3[C@@]4(C)CC[C@H](O)C(C)(C)[C@@H]4CC[C@@]3(C)[C@]1(C)C[C@@H]2O
2. N=C(N)NS(=O)(=O)c1ccc(N/N=C2/CCOC2=O)cc1
3. OC1c2ccccc2[C@@H]2[C@H]1[C@@H](c1ccccc1)C1(Cc3ccccc3C1O)[C@H]2c1ccccc1 (some centres undefined)
4. Nc1ccc2nc(-c3cccc(C(F)(F)F)c3)cc(O)c2c1

Result ::
1: 20.1 µM (inactive); 2: > 100 µM (inactive); 3: 3.93 µM (inactive); 4: 51.2 µM (inactive)

###

Consider the following molecules; for each one, report its GI50.
# System: OVCAR-8
# PROCEDURE_SUMMARY: NCI tumour cell line growth inhibition, 48 h
Active and inactive are the calls of the source. No stated cut-off is given here; in the data, active = GI50 up to about 1.1 µM and inactive = higher.

Below, 5 molecules whose answers are already recorded.
CCOC(=O)Cn1c(=O)c2cc(C)cc3c(Cl)nc4c(OC)c(OC)cc1c4c32: > 100 µM (inactive)
OC(c1ccccc1)(c1cccnc1)C(O)(c1ccccc1)c1cccnc1 (stereo not given): > 100 µM (inactive)
Cc1ccc(/N=C2N=C(Cl)/C(=C\c3ccccc3)N\2)cc1: > 25.8 µM (inactive)
O=C(CCN1CCC(CCO)CC1)Nc1ccc2c(c1)C(=O)c1ccc(NC(=O)CCN3CCC(CCO)CC3)cc1C2=O: 9.89 µM (inactive)
O=S(=O)(SCCCCSS(=O)(=O)c1ccc(Cl)cc1)c1ccc(Cl)cc1: 12.2 µM (inactive)

Hello, I would appreciate it if you could give GI50 for each entry below.
1. O=C1c2ccccc2CC12Cc1ccc3c(c1C2)CCC3 (stereo not given)
2. FC(F)(F)c1cccc(/C=N/C23CC4CC(CC(C4)C2)C3)c1
3. O=C(Nc1ccccn1)/C(=C\C(=O)c1ccc(Cl)cc1)Nc1ccccc1

Result ::
1. 28.8 µM (inactive)
2. > 100 µM (inactive)
3. > 10 µM (inactive)

Hello, I would appreciate it if you could give GI50 for each entry below.
1. C=CC[C@]1(/C=N/O)CN(S(=O)(=O)CC[Si](C)(C)C)C[C@H]2CC=CC[C@H]21
2. COc1ccc(O)c(C(=O)CCC(=O)O)c1

Result ::
["24 µM (inactive)", "> 100 µM (inactive)"]

###

# Tested on: HOP-62
# PROCEDURE_SUMMARY: NCI tumour cell line growth inhibition, 48 h
Activity calls are given as the source filed them. Rule as the data show it: active = GI50 up to about 1.1 µM and inactive = higher.
ENDPOINT_NAME: GI50

Cc1cc(Cl)ccc1NC(=O)CC/C(CC(=O)C(C)C)=N\NC(=O)C[n+]1ccccc1: > 100 µM (inactive)
C[N+](C)=C/C=C(\Cl)c1ccc2ccccc2c1: 17.8 µM (inactive)

Hello, I would appreciate it if you could give GI50 for each entry below.
1. CCCCCC(C/C=N/N(C)C)C(O)(C(F)(F)F)C(F)(F)F (stereo unspecified)
2. CCN1CCC(O)(c2ccc(C)cc2)C(C(=O)c2ccc(C)cc2)C1 (stereo unspecified)
3. NC(CC1=CCC=CC1)C(=O)O (stereo unspecified)
4. CCCCCC(=O)Nc1nc(O)c2[nH]cnc2n1
5. CN(C)/C=N\c1nncc2[nH]nnc12
6. OC(COc1ccc(Cl)cc1Cl)CN1CCCC1 (stereo unspecified)
7. O=C(c1ccc(Cl)cc1)c1ccc(OCCCOc2ccc(C(=O)c3ccc(Cl)cc3)cc2)cc1
8. CCOC(=O)/C(C#N)=C/c1ccc2c(c1)CC1(C2)Cc2cc(CC)c(C(C)O)cc2C1 (stereo unspecified)

Result ::
42.3 µM (inactive)
> 100 µM (inactive)
> 100 µM (inactive)
> 100 µM (inactive)
> 100 µM (inactive)
> 100 µM (inactive)
> 100 µM (inactive)
14.2 µM (inactive)

Query :: Please tell me: GI50 of CCN1C(Cl)=NS(=O)(=O)c2ccccc21 , system HOP-62?
Result :: 25.2 µM (inactive)

###

# Tested on: A498
# PROCEDURE_SUMMARY: NCI tumour cell line growth inhibition, 48 h
Activity calls are given as the source filed them. No stated cut-off is given here; in the data, active = GI50 up to about 1.1 µM and inactive = higher.
Respond with a class label; see active, inactive

COc1cc2ccc1OCc1cccc(n1)COc1ccc(cc1OC)/C=N\CCNCC/N=C\2: inactive

Query :: Per the records of this test, what outcome belongs to Cc1ccc(OCC2OC(n3cnc4c(Cl)nc(Cl)nc43)CC2Oc2ccc(C)cc2)cc1 (stereo unspecified) ?
Result :: inactive

Query :: Per the records of this test, what outcome belongs to CCN(CC)CCNc1ccc2ncn3c4cc(OC)c(OC)c(O)c4c(=O)c1c23 ?
Result :: inactive

Query :: Per the records of this test, what outcome belongs to FC(F)(F)c1cccc(/C=N/C23CC4CC(CC(C4)C2)C3)c1 ?
Result :: inactive

Query :: Per the records of this test, what outcome belongs to CC(=O)Nc1cc([As](=O)(O)O)ccc1O ?
Result :: inactive

Query :: Per the records of this test, what outcome belongs to OCC(O)C(OC1OC(CO)C(O)C(O)C1O)c1nn(-c2ccccc2)c2nc3cc(Cl)ccc3nc12 (stereo unspecified) ?
Result :: inactive

Query :: Per the records of this test, what outcome belongs to CN/C=C(/c1ccc(OC)cc1)C(O)c1ccc(OC)c(OC)c1 (stereo unspecified) ?
Result :: inactive

Query :: Per the records of this test, what outcome belongs to CCOC(=O)CCC(C(=O)OCC)n1nnc2cc(Nc3c(C)[n+]([O-])c4cc(F)c(OCC)cc4[n+]3[O-])ccc21 (stereo unspecified) ?
Result :: inactive

Query :: Per the records of this test, what outcome belongs to O=C(c1ccccc1)C(C(=O)c1ccccc1)C1(O)C(=O)c2ccccc2C1=O ?
Result :: inactive

Query :: Per the records of this test, what outcome belongs to COc1ccc(NCc2cc(OC)c(OC)c(OC)c2)cc1 ?
Result :: active

Query :: Per the records of this test, what outcome belongs to NC1=C(C(=O)O)C(=O)C(Nc2c(O)cccc2C(=O)O)=CC1=O ?
Result :: inactive

Query :: Per the records of this test, what outcome belongs to Nc1c(-c2ccc(Cl)cc2Cl)[n+]([O-])c2ccccc2[n+]1[O-] ?
Result :: inactive

Query :: Per the records of this test, what outcome belongs to CCCS(=O)OC1C(C2COC(C)(C)O2)OC2OC(C)(C)OC21 (stereo unspecified) ?
Result :: inactive

Query :: Per the records of this test, what outcome belongs to O=C1/C(=C(\Nc2ccccc2)c2ccccc2)C=NN1c1ccccc1 ?
Result :: inactive

Query :: Per the records of this test, what outcome belongs to CCOc1c2c(cc3c1C(=O)c1c(OC)cccc1C3=O)C=C(OC)CC2 ?
Result :: inactive

Query :: Per the records of this test, what outcome belongs to COc1cccc(C2C(C(=O)O)=C(CO)Oc3cc4c(cc32)OCO4)c1OC (stereo unspecified) ?
Result :: inactive

Query :: Per the records of this test, what outcome belongs to CC(=O)CCC(=O)CC(O)(C(F)(F)F)C(F)(F)F ?
Result :: inactive

Query :: Per the records of this test, what outcome belongs to CN1CCC23c4c5ccc(O)c4OC2C(=NN=C2CCC4(O)C6Cc7ccc(O)c8c7C4(CCN6C)C2O8)CCC3(O)C1C5 (stereo unspecified) ?
Result :: inactive

Query :: Per the records of this test, what outcome belongs to CC(C)(CN1CCCCC1)C(=O)CC(SCCS(=O)(=O)O)c1ccc(Br)cc1 (stereo unspecified) ?
Result :: inactive

Query :: Per the records of this test, what outcome belongs to COc1cc(Br)c(/C=N/N=C(\N)NO)cc1OC ?
Result :: inactive

Query :: Per the records of this test, what outcome belongs to CNc1ncnc2c1cnn2CCCCO ?
Result :: inactive
